Source of measurements: patent US11026943B2

Target: Nurr1 LBD (Mus musculus, UniProt Q06219)
Sequence (Q06219 328-598): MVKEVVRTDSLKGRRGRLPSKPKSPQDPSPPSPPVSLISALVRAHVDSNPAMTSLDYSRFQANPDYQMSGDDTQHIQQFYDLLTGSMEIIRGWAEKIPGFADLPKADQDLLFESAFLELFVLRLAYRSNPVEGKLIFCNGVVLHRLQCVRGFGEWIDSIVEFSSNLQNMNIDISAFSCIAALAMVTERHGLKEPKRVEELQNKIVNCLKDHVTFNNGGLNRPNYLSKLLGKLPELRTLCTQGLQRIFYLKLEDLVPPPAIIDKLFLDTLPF
Experiment: Nurr1 LBD GAL4 reporter assay (pSVGAL(DBD)-N(LBD), p8xGAL-Luc) in SK-N-BE(2)C cells
Settings: read-out: EC50 Nurr1 LBD-based reporter activity
Assay Readout: EC50

Requested read-out: EC50. Entry: CCN(CC)Cc1cc(Nc2ccnc3cc(Cl)ccc23)ccc1O
~20 µM

----------
// values below are pKi; system is Nurr1 LBD (Mus musculus, UniProt Q06219)
Numbers only, as −log10 of the molar value.

molecule="CCN(CC)CCCC(C)Nc1ccnc2cc(Cl)ccc12 (centres unmarked)" assay_readout=pKi test_value=7.06

For CCN(CC)Cc1cc(Nc2ccnc3cc(Cl)ccc23)ccc1O , what is its reported pKi?
6.61

----------
Provide the reported IC50 of each item.
Test system: HepG2 cells
Assay: In vitro cytotoxicity to mammalian cells, HepG2
Format: cell-based
Settings: Homo sapiens
From the text: Med. Chem. 2005, 13, 4458; Khan, I. A. Lipids 2004, 37, 169].

Each of the following entries comes with a recorded value; kindly state IC50 for each.
1. Cc1cc(NCCCCNc2ccnc3cc(Cl)ccc23)nc(Cl)n1 [10c]
2. Cc1cc(NCCCCCCNc2ccnc3cc(Cl)ccc23)nc(N2CCCCC2)n1 [12d]
3. Cc1cc(NCCCNc2ccnc3cc(Cl)ccc23)nc(Cl)n1 [10b]
4. Cc1cc(NCCCCCCNc2ccnc3cc(Cl)ccc23)nc(N2CCN(C)CC2)n1 [12l]
5. Cc1cc(NCCCCCCNc2ccnc3cc(Cl)ccc23)nc(N2CCOCC2)n1 [12h]

> 60 µM
< 6.7 µM
> 60 µM
< 6.7 µM
< 6.7 µM

----------
Give measured melting point for each item. Keep answers brief.

compound="Cc1cc(NCCCCNc2ccnc3cc(Cl)ccc23)nc(N2CCCCC2)n1 [12c]" test_value="187 to 189 °C"
compound="Cc1cc(NCCNc2ccnc3cc(Cl)ccc23)nc(N2CCCCC2)n1 [12a]" test_value="177 to 179 °C"

# batch: return melting point for each of the 8 compounds below
1. Cc1cc(NCCCCCCNc2ccnc3cc(Cl)ccc23)nc(N2CCCCC2)n1 [12d]
2. Cc1cc(NCCCCNc2ccnc3cc(Cl)ccc23)nc(N2CCOCC2)n1 [12g]
3. Cc1cc(NCCCNc2ccnc3cc(Cl)ccc23)nc(N2CCN(C)CC2)n1 [12j]
4. Cc1cc(NCCCCNc2ccnc3cc(Cl)ccc23)nc(N2CCN(C)CC2)n1 [12k]
5. Cc1cc(NCCNc2ccnc3cc(Cl)ccc23)nc(N2CCOCC2)n1 [12e]
6. Cc1cc(NCCCCCCNc2ccnc3cc(Cl)ccc23)nc(N2CCN(C)CC2)n1 [12l]
7. Cc1cc(NCCCCCCNc2ccnc3cc(Cl)ccc23)nc(N2CCOCC2)n1 [12h]
8. Cc1cc(NCCCNc2ccnc3cc(Cl)ccc23)nc(N2CCOCC2)n1 [12f]

97 to 99 °C
214 to 216 °C
176 to 178 °C
183 to 185 °C
165 to 167 °C
152 to 154 °C
107 to 109 °C
165 to 167 °C

Given the compound CCN1CCN(c2nc(C)cc(NCCCCNc3ccnc4cc(Cl)ccc34)n2)CC1 [12n] , what is its reported melting point?
101 to 103 °C

----------
Test system: HepG2 cells
Experiment: In vitro cytotoxicity to mammalian cells, HepG2
Type: cell-based
Settings: Homo sapiens
Could you please report measured IC50 for the items listed next?

molecule=COc1cccc2c1C(=O)c1c(O)c3c(c(O)c1C2=O)C[C@@](O)(C(=O)CO)C[C@@H]3O[C@H]1C[C@H](N)[C@H](O)[C@H](C)O1 test_value="< 1 µM"
molecule="Cc1cc(NCCCCNc2ccnc3cc(Cl)ccc23)nc(N2CCCCC2)n1 [12c]" test_value="> 60 µM"
molecule="Cc1cc(Cl)nc(NCCCCNc2ccnc3cc(Cl)ccc23)n1 [11c]" test_value="39.8 µM"
molecule="Cc1cc(NCCNc2ccnc3cc(Cl)ccc23)nc(Cl)n1 [10a]" test_value="> 60 µM"
molecule="Cc1cc(NCCNc2ccnc3cc(Cl)ccc23)nc(N2CCN(C)CC2)n1 [12i]" test_value="> 60 µM"
molecule="Cc1cc(NCCNc2ccnc3cc(Cl)ccc23)nc(N2CCOCC2)n1 [12e]" test_value="> 60 µM"
molecule="CCN1CCN(c2nc(C)cc(NCCCNc3ccnc4cc(Cl)ccc34)n2)CC1 [12m]" test_value="> 60 µM"
molecule="Cc1cc(Cl)nc(NCCCNc2ccnc3cc(Cl)ccc23)n1 [11b]" test_value="> 60 µM"

Could I get IC50 for every one of these entries?
1. CCN1CCN(c2nc(C)cc(NCCCCNc3ccnc4cc(Cl)ccc34)n2)CC1 [12n]
2. Cc1cc(NCCCNc2ccnc3cc(Cl)ccc23)nc(N2CCCCC2)n1 [12b]
3. Cc1cc(NCCCCNc2ccnc3cc(Cl)ccc23)nc(N2CCN(C)CC2)n1 [12k]

14.9 µM
> 60 µM
27.2 µM
